- assay system: SARS-CoV-2 N-CTD (nucleocapsid C-terminal domain) (SARS-CoV-2, UniProt P0DTC9 247-364)
- assay summary: BLI; BLI and EMSA: 25 mM sodium phosphate, 50 mM NaCl, pH 6.0; EMSA 25 C, 30 min, 10 uM RNA, 20% native PAGE
- condition: protein: recombinant; biotinylated for BLI; 15N-labelled for NMR; chain copies: 2; label: none
readout label: Kd

1. AUAUGGAAGAGCCCUA (ssRNA) [15-nt SARS-CoV-2 genome-derived RNA]
~10.1 µM
